Molecular target: human insulin receptor (HIR) (human, UniProt P06213)
Assay: competition
quantity measured: Kd

GSLDESFYDWFER [S396]	> 20 µM
WFGYAWLS [S317]	> 20 µM
FHENAYDWFVRQVSKK [S219]	> 20 µM
FYDWF [S165]	> 20 µM

Parameter requested: Kd. Apply to each item below.
1. AFYDWFA [S181]
2. AFYDWFAK [S180]
3. ESFYDWF [S403]
4. HPTSKEIYAKLLK [S122]
5. DPFYQGLWEWLRESGEE [S289]

Reply |
1: > 20 µM; 2: > 20 µM; 3: > 20 µM; 4: 93 µM; 5: > 20 µM

Parameter requested: Kd. Apply to each item below.
1. PLRESRNFYDWFVQQLE [S366]
2. FHENFYDWFVAQVSKK [S108]
3. GSLDESFYDWFE [S397]
4. ALEEEWAWVQVRSIRSGLPL [S284]

Reply |
3.7 µM
7.5 µM
> 20 µM
> 20 µM

Parameter requested: Kd. Apply to each item below.
1. GFREGQRWYWFVAQVT [S278]
2. AFYKWFAKK [S216]
3. AHENFYDWFVRQVSKK [S113]

Reply |
1. > 20 µM
2. > 20 µM
3. 5.9 µM

meta.source: patent US20090053807
